Listed here: items and their measured Vd.
test.description: Volume of distribution at steady state in monkey at 0.5 mg/kg, iv
Type: ADME, organism-based, Macaca mulatta
Parameters: dose 0.5 mg/kg, route intravenous
details: rhesus monkey, in vivo, read-out: Vdss
Give the value, in units of L/kg, as a plain number.

# smiles.notation, unit.label, Vd
records = [
    ("CCOCc1c(C(=O)NCc2cncn2C)cnn1-c1ncc(C)c(N2CCCCC2)n1", "L/kg", 0.77),
]

Now for a further compound.
Measured Vd of COCc1c(C(=O)NCc2ccncc2)cnn1-c1ncc(C)c(-c2cccs2)n1 : 1

* * *

remaining at 0.5 h, 1 µM listing for selected molecules.
test.description: Metabolic stability in rat liver microsomes assessed as compound remaining at 1 uM after 30 mins by LC/MS analysis
Format: ADME, Microsome
details: read-out: Stability
// return numeric value only (unit: %, not printed)

Solved cases below.
# smiles.notation, unit.label, remaining at 0.5 h, 1 µM
records = [
    ("CCOCc1c(C(=O)NCc2cncn2C)cnn1-c1ncc(C)c(OCC)n1", "%", 77),
    ("CCOCc1c(C(=O)NCc2cncn2C)cnn1-c1ncc(C)c(N2CCCC2)n1", "%", 66),
    ("CCOCc1c(C(=O)NCc2cncn2C)cnn1-c1ncc(C)c(N2CCCCC2)n1", "%", 53),
]

# remaining at 0.5 h, 1 µM of CCCCc1c(C(=O)NCc2cncn2C)cnn1-c1ncc(C)c(-c2cccs2)n1 = 54

* * *

test.description: Oral bioavailability in monkey at 1 mg/kg
Format: ADME, organism-based, Macaca mulatta
details: rhesus monkey, in vivo
quantity.name: bioavailability (%)
A number alone suffices; assume %.

# smiles.notation, bioavailability, %
measured = [
    ("CCOCc1c(C(=O)NCc2cncn2C)cnn1-c1ncc(C)c(N2CCCCC2)n1", 26),
]

Reported bioavailability ( COCc1c(C(=O)NCc2ccncc2)cnn1-c1ncc(C)c(-c2cccs2)n1 ) = 3.9

* * *

test.system: Probable G-protein coupled receptor 142 (Homo sapiens, UniProt Q7Z601)
Sequence (Q7Z601 whole entry): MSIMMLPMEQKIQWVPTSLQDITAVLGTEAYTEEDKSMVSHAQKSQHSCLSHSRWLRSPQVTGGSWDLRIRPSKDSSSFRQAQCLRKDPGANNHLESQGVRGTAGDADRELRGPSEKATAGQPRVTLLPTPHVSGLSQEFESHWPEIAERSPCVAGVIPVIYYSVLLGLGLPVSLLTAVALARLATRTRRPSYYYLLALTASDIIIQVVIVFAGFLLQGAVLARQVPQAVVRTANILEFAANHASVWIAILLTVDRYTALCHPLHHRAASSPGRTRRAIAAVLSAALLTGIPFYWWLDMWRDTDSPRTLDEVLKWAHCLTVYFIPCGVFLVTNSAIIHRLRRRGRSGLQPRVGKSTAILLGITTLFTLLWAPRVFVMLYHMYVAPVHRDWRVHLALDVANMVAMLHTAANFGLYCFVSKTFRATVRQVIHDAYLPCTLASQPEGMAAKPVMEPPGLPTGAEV
test.description: Agonist activity at human GPR142 transfected in HEK293 cells after 1 hr by inositol phosphate accumulation assay
Type: functional, cell-based
details: read-out: EC50
quantity.name: log10 of EC50 (log10 of the value in nM)
// do not treat as linear: log10 of EC50, unit nM

# molecule, quantity.name, reported.result
rows = [
    ("CCCCc1c(C(=O)NCc2ccnn2C)cnn1-c1ncc(C)c(-c2cccs2)n1", "log10 of EC50", 1.95),
]

log10 of EC50 reported for this molecule CCc1c(C(=O)NCc2ccncc2)cnn1-c1ncc(C)c(-c2cccs2)n1 : 3.00

The reported value for CCC(C)c1c(C(=O)NCc2ccncc2)cnn1-c1ncc(C)c(-c2cccs2)n1 (stereo not given) in terms of log10 of EC50 is 3.08

Documented log10 of EC50 of CCCc1c(C(=O)N(CC)Cc2ccncc2)cnn1-c1ncc(C)c(-c2cccs2)n1 : 3.48

Item: CCOCc1c(C(=O)NCc2cncn2C)cnn1-c1ncc(C)c(-c2cccs2)n1 | log10 of EC50: 0.11

Lab book: log10 of EC50 of CCCCc1c(C(=O)NCc2cncn2CC(=O)O)cnn1-c1ncc(C)c(-c2cccs2)n1 noted as -0.70

For this molecule ( CCCCc1c(C(=O)NCc2ccncc2)cnn1-c1ncc(C)c(-c2cccs2)n1 ), measured log10 of EC50 is 0.85

// recorded log10 of EC50 for CCCc1c(C(=O)NCc2ccncc2)cnn1-c1ncc(C)c(-c2cccs2)n1 : 2.40

The reported log10 of EC50 of the molecule COCc1c(C(=O)NCc2ccncc2)cnn1-c1ncc(C)c(-c2cccs2)n1 was 3.18

The recorded log10 of EC50 for entry CCOCc1c(C(=O)NCc2cncn2C)cnn1-c1ncc(C)c(N2CCCCC2)n1 equals 1.34

Numbers sourced from ChEMBL document CHEMBL2406902.
